- procedure.text: Study BHV3500-107 Cohort 1: zavegepant 50 mg SoftGel QD PK (fasted Days 1-10, fed Days 11-14)
- Format: in vivo, humans
- condition.context: human, in vivo, oral, 50 mg, Study 107, Cohort 1, Day 1; 50 mg SoftGel single dose, fasted; read-out: AUCINF_obs, Geometric Mean
readout.type: AUC(0-inf)
Express the reported value numerically, then name its unit.

Recorded AUC(0-inf) for Cc1cc(C[C@@H](NC(=O)N2CCC(c3cc4ccccc4[nH]c3=O)CC2)C(=O)N2CCN(C3CCN(C)CC3)CC2)cc2cn[nH]c12 , please?
20 ng·h/mL

* * *

- procedure.text: Study BHV3500-107 Cohort 1: zavegepant 50 mg SoftGel QD PK (fasted Days 1-10, fed Days 11-14)
- Type: in vivo, humans
- condition.context: human, in vivo, oral, 50 mg, Day 10, steady state, fasting; 50 mg QD SoftGel; statistic not stated; read-out: Tmax
readout.type: Tmax (h)
// units = h; emit number, no label

Recorded Tmax for Cc1cc(C[C@@H](NC(=O)N2CCC(c3cc4ccccc4[nH]c3=O)CC2)C(=O)N2CCN(C3CCN(C)CC3)CC2)cc2cn[nH]c12 , please?
2

* * *

- procedure.text: Study BHV3500-107 Cohort 1: zavegepant 50 mg SoftGel QD PK (fasted Days 1-10, fed Days 11-14)
- Format: in vivo, humans
- condition.context: human, in vivo, oral, 50 mg, Study 107, Cohort 1, Day 1; 50 mg SoftGel single dose, fasted; read-out: Tmax, Geometric Mean
readout.type: Tmax
Express the reported value numerically, then name its unit.

Recorded Tmax for Cc1cc(C[C@@H](NC(=O)N2CCC(c3cc4ccccc4[nH]c3=O)CC2)C(=O)N2CCN(C3CCN(C)CC3)CC2)cc2cn[nH]c12 [BHV-3500] , please?
2.18 h

* * *

- procedure.text: Study BHV3500-107 Cohort 1: zavegepant 50 mg SoftGel QD PK (fasted Days 1-10, fed Days 11-14)
- Assay type: in vivo, humans
- condition.context: human, in vivo, po, 50 mg, Cohort 1, Day 1, 50 mg SoftGel oral, fasted, single dose; Mean; read-out: Tmax
readout.type: Tmax (h)
// units = h; emit number, no label

Recorded Tmax for Cc1cc(C[C@@H](NC(=O)N2CCC(c3cc4ccccc4[nH]c3=O)CC2)C(=O)N2CCN(C3CCN(C)CC3)CC2)cc2cn[nH]c12 , please?
2.42

* * *

- procedure.text: Study BHV3500-103 Treatment B: PK after 50 mg x 1 SoftGel orally
- Format: in vivo, humans
- condition.context: human, in vivo, po, 50 mg, Study 103; 50 mg SoftGel x 1 oral; read-out: AUCINF_obs, Mean
readout.type: AUC(0-inf) (ng·h/mL)
// units = ng·h/mL; emit number, no label

Recorded AUC(0-inf) for Cc1cc(C[C@@H](NC(=O)N2CCC(c3cc4ccccc4[nH]c3=O)CC2)C(=O)N2CCN(C3CCN(C)CC3)CC2)cc2cn[nH]c12 , please?
25.8

* * *

- procedure.text: Study BHV3500-107 Cohort 1: zavegepant 50 mg SoftGel QD PK (fasted Days 1-10, fed Days 11-14)
- Assay type: in vivo, humans
- condition.context: human, in vivo, oral, 50 mg, Study 107, Cohort 1, Day 1; 50 mg SoftGel single dose, fasted; read-out: Cmax, Median
readout.type: Cmax (ng/mL)
// units = ng/mL; emit number, no label

Recorded Cmax for Cc1cc(C[C@@H](NC(=O)N2CCC(c3cc4ccccc4[nH]c3=O)CC2)C(=O)N2CCN(C3CCN(C)CC3)CC2)cc2cn[nH]c12 , please?
5.73

* * *

- procedure.text: Study BHV3500-107 Cohort 1: zavegepant 50 mg SoftGel QD PK (fasted Days 1-10, fed Days 11-14)
- Assay type: in vivo, humans
- condition.context: human, in vivo, oral, 50 mg, Day 14, fed (moderate fat meal); 50 mg QD SoftGel; statistic not stated, range 1.0 to 3.0; read-out: Cmax
readout.type: Cmax (ng/mL)
// units = ng/mL; emit number, no label

Recorded Cmax for Cc1cc(C[C@@H](NC(=O)N2CCC(c3cc4ccccc4[nH]c3=O)CC2)C(=O)N2CCN(C3CCN(C)CC3)CC2)cc2cn[nH]c12 , please?
1.6

* * *

- procedure.text: Study BHV3500-107 Cohort 1: zavegepant 50 mg SoftGel QD PK (fasted Days 1-10, fed Days 11-14)
- Format: in vivo, humans
- condition.context: human, in vivo, po, 50 mg, Cohort 1, Day 1, 50 mg SoftGel oral, fasted, single dose; Median; read-out: Tmax
readout.type: Tmax (h)
// units = h; emit number, no label

Recorded Tmax for Cc1cc(C[C@@H](NC(=O)N2CCC(c3cc4ccccc4[nH]c3=O)CC2)C(=O)N2CCN(C3CCN(C)CC3)CC2)cc2cn[nH]c12 [BHV-3500] , please?
2.25

* * *

- procedure.text: in vivo
- condition.context: female, beagle, dog, 50 mg, AUC0-4 hr, Median/Average
readout.type: AUC(0-t) (ng·h/mL)
// units = ng·h/mL; emit number, no label

Recorded AUC(0-t) for Cc1cc(C[C@@H](NC(=O)N2CCC(c3cc4ccccc4[nH]c3=O)CC2)C(=O)N2CCN(C3CCN(C)CC3)CC2)cc2cn[nH]c12 [BHV-3500] , please?
55.1

* * *

- procedure.text: Study BHV3500-107 Cohort 1: zavegepant 50 mg SoftGel QD PK (fasted Days 1-10, fed Days 11-14)
- Format: in vivo, humans
- condition.context: human, in vivo, oral, 50 mg, Day 10, steady state, fasting; 50 mg QD SoftGel; statistic not stated, range 2.3 to 46.1; read-out: Cmax
readout.type: Cmax (ng/mL)
// units = ng/mL; emit number, no label

Recorded Cmax for Cc1cc(C[C@@H](NC(=O)N2CCC(c3cc4ccccc4[nH]c3=O)CC2)C(=O)N2CCN(C3CCN(C)CC3)CC2)cc2cn[nH]c12 , please?
5.7

* * *

- procedure.text: Study BHV3500-103 Treatment B: PK after 50 mg x 1 SoftGel orally
- Assay type: in vivo, humans
- condition.context: human, in vivo, po, 50 mg, Study 103; 50 mg SoftGel x 1 oral; read-out: AUC0-24, Median
readout.type: AUC(0-t)

Recorded AUC(0-t) for Cc1cc(C[C@@H](NC(=O)N2CCC(c3cc4ccccc4[nH]c3=O)CC2)C(=O)N2CCN(C3CCN(C)CC3)CC2)cc2cn[nH]c12 [BHV-3500] , please?
18.8 ng·h/mL

* * *

- procedure.text: Study BHV3500-103 Treatment B: PK after 50 mg x 1 SoftGel orally
- Assay type: in vivo, humans
- condition.context: human, in vivo, po, 50 mg, Study 103; 50 mg SoftGel x 1 oral; read-out: Tmax, Median
readout.type: Tmax (h)
// units = h; emit number, no label

Recorded Tmax for Cc1cc(C[C@@H](NC(=O)N2CCC(c3cc4ccccc4[nH]c3=O)CC2)C(=O)N2CCN(C3CCN(C)CC3)CC2)cc2cn[nH]c12 , please?
1.75

* * *

- procedure.text: Study BHV3500-107 Cohort 1: zavegepant 50 mg SoftGel QD PK (fasted Days 1-10, fed Days 11-14)
- Format: in vivo, humans
- condition.context: human, in vivo, po, 50 mg, Cohort 1, Day 10, 50 mg QD SoftGel oral, fasted, multiple dose; Median; read-out: Tmax
readout.type: Tmax (h)
// units = h; emit number, no label

Recorded Tmax for Cc1cc(C[C@@H](NC(=O)N2CCC(c3cc4ccccc4[nH]c3=O)CC2)C(=O)N2CCN(C3CCN(C)CC3)CC2)cc2cn[nH]c12 [BHV-3500] , please?
2

* * *

- procedure.text: Study BHV3500-103 Treatment B: PK after 50 mg x 1 SoftGel orally
- Type: in vivo, humans
- condition.context: human, in vivo, po, 50 mg, Study 103; 50 mg SoftGel x 1 oral; read-out: Tmax, Geometric Mean
readout.type: Tmax (h)
// units = h; emit number, no label

Recorded Tmax for Cc1cc(C[C@@H](NC(=O)N2CCC(c3cc4ccccc4[nH]c3=O)CC2)C(=O)N2CCN(C3CCN(C)CC3)CC2)cc2cn[nH]c12 , please?
1.65

* * *

- procedure.text: Study BHV3500-107 Cohort 1: zavegepant 50 mg SoftGel QD PK (fasted Days 1-10, fed Days 11-14)
- Format: in vivo, humans
- condition.context: human, in vivo, po, 50 mg, Cohort 1, Day 10, 50 mg QD SoftGel oral, fasted, multiple dose; Mean; read-out: Cmax
readout.type: Cmax (ng/mL)
// units = ng/mL; emit number, no label

Recorded Cmax for Cc1cc(C[C@@H](NC(=O)N2CCC(c3cc4ccccc4[nH]c3=O)CC2)C(=O)N2CCN(C3CCN(C)CC3)CC2)cc2cn[nH]c12 [BHV-3500] , please?
9.71

Ref: patent US20240066028A1
